Reference source for all entries: patent US20170121315A1

# TESTED_SYSTEM: human macrophage elastase (HME/hMMP-12) (Homo sapiens, UniProt P39900)
# Sequence (P39900 106-470): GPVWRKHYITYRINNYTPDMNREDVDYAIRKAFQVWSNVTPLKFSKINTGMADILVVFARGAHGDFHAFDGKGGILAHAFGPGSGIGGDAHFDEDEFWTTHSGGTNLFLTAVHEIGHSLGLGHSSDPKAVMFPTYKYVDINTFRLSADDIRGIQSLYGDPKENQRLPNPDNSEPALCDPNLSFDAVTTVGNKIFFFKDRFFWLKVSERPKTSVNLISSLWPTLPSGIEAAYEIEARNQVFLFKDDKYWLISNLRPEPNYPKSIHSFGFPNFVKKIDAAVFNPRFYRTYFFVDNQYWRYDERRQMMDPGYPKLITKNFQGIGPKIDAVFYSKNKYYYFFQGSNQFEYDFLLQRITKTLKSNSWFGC
# PROCEDURE_DETAILS: In vitro HME inhibition test (standard or high-sensitivity)
# APPLIED_CONDITIONS: in some cases mean values, rounded to two significant figures
QUANTITY_MEASURED: IC50 (nM)
The answer is to be given in nM; state only the numeric part.

# MOLECULE, TESTED_SYSTEM, IC50 [nM]
records = [
    ("O=C(CC(CCn1nnc2ccccc2c1=O)C(=O)O)c1noc2cc(OCCc3ccccc3)ccc12 (racemic)", "human macrophage elastase (HME/hMMP-12) (Homo sapiens, UniProt P39900)", 1.4),
    ("O=C(CC(CCn1nnc2ccccc2c1=O)C(=O)O)c1cc2cc(OCc3cc(F)ccc3F)ccc2o1 (racemic)", "human macrophage elastase (HME/hMMP-12) (Homo sapiens, UniProt P39900)", 0.55),
    ("O=C(CC(CCn1nnc2ccc(C(F)(F)F)cc2c1=O)C(=O)O)c1noc2cc(OCc3ccccc3)ccc12 (racemic)", "human macrophage elastase (HME/hMMP-12) (Homo sapiens, UniProt P39900)", 0.75),
    ("O=C(CC(CCn1nnc2ccccc2c1=O)C(=O)O)c1cc2cc(OCC3CCCCC3)ccc2o1 (single isomer, unassigned; enantiomer 2) [Example 10]", "human macrophage elastase (HME/hMMP-12) (Homo sapiens, UniProt P39900)", 0.62),
    ("CCCCCCCOc1ccc2cc(C(=O)CC(CCn3nnc4ccccc4c3=O)C(=O)O)oc2c1 (single isomer, unassigned; (+)) [Example 69]", "human macrophage elastase (HME/hMMP-12) (Homo sapiens, UniProt P39900)", 1),
    ("O=C(CC(CCn1nnc2ccc(C(F)(F)F)cc2c1=O)C(=O)O)c1cc2ccc(OCC3CC3)cc2s1 (racemic) [Example 128]", "human macrophage elastase (HME/hMMP-12) (Homo sapiens, UniProt P39900)", 1.1),
]

// returns reported IC50 for input O=C(CC(CCn1nnc2ccccc2c1=O)C(=O)O)c1noc2cc(OCc3cccnc3)ccc12 (racemic)
1.8

// returns reported IC50 for input CCCCOc1ccc2c(C(=O)CC(CCn3nnc4ccccc4c3=O)C(=O)O)coc2c1 (racemic) [Example 107]
0.61
